The reported measurements were obtained from paper PMC4300089.

molecules and their reported AC50
Target: Epac2^Δ280 (Mus musculus, UniProt Q9EQZ6)
Construct: made in house
Sequence (Q9EQZ6 299-1011, stated change not applied): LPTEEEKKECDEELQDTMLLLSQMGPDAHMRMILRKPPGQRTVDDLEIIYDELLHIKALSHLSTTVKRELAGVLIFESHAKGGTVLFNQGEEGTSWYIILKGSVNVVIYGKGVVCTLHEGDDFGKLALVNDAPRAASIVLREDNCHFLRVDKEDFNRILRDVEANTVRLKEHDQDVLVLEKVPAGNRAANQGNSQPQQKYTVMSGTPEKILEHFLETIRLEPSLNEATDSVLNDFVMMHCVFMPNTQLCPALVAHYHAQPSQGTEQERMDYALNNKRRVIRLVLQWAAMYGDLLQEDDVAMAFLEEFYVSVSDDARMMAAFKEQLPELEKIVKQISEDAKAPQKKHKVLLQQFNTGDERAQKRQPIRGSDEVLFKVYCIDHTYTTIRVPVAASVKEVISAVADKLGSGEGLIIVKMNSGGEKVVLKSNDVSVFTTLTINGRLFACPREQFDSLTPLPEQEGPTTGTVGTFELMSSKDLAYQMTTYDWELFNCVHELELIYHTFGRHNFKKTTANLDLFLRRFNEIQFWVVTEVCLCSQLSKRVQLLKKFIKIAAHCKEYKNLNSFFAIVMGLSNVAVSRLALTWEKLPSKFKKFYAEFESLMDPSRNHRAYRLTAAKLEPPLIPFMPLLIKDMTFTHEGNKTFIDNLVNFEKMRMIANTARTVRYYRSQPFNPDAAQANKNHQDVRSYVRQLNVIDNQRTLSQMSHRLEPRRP
Test: Epac activation assay (Rap1B•mGDP fluorescence nucleotide exchange), Epac2^Δ280
Format: biochemical
Settings: Epac2^Δ280
Hi! Could you send only the number? It should be in µM, unit omitted.

                                   molecule  unit_of_measure  observed_value
0  [N-]=[N+]=Nc1nc2c(N)ncnc2n1[C@@H]1O[C@@H]2COP(=O)(O)O[C@H]2[C@H]1O [L-004, 8-N3-cAMP]               µM             0.2
1  CCCO[C@@H]1[C@@H]2OP(=O)(O)OC[C@H]2O[C@H]1n1cnc2c(N)ncnc21 [Z-005, 2′-O-Pr-cAMP]               µM              70
2  COC1C2OP(=O)(O)OCC2OC1n1c(Sc2ccc(Cl)cc2)nc2c(N)ncnc21 [D-007, 8-pCPT-2′-O-Me-cAMP, reference compound]               µM             3.5
3  CSc1nc2c(N)ncnc2n1[C@@H]1O[C@@H]2CO[P@](O)(=S)O[C@H]2[C@H]1O [S-160, Sp-8-MeT-cAMPS]               µM             0.3
4  Nc1ncnc2c1nc(SCc1ccccc1)n2[C@@H]1O[C@@H]2CO[P@](O)(=S)O[C@H]2[C@H]1F [S-222, Sp-8-BnT-2′-F-cAMPS]               µM             4.3

// field: AC50; key: CCN(CC)c1nc2c(N)ncnc2n1[C@@H]1O[C@@H]2COP(=O)(O)O[C@H]2[C@H]1O [L-016, 8-DEA-cAMP] ; value = 9

// field: AC50; key: Nc1ncnc2c1nc(SCc1ccccc1)n2[C@@H]1O[C@@H]2CO[P@](O)(=S)O[C@H]2[C@H]1O [S-220, Sp-8-BnT-cAMPS] ; value = 0.1

// field: AC50; key: Nc1ncnc2c1ncn2[C@H]1C[C@@H]2OP(=O)(O)OC[C@H]2O1 [Z-001, 2′-dcAMP] ; value = 70

###

Target: Epac2^Δ280 (Mus musculus)
Construct: made in house
Assay: Epac activation assay (Rap1B•mGDP fluorescence nucleotide exchange), Epac2^Δ280
Assay type: biochemical
Conditions: Epac2^Δ280; maximal activity relative to cAMP
METRIC: Rel. kmax
Respond with the number and no other words.

// below: answered compounds
                                   compound        experimental_target  observed_value
0  CNc1nc2c(N)ncnc2n1[C@@H]1O[C@@H]2CO[P@](O)(=S)O[C@H]2[C@H]1Cl [S-033, Sp-8-MeA-2′-Cl-cAMPS]  Epac2^Δ280 (Mus musculus)             0.7
1  Nc1ncnc2c1nc(Br)n2[C@@H]1O[C@@H]2COP(=O)(O)O[C@H]2[C@H]1O [L-002, 8-Br-cAMP]  Epac2^Δ280 (Mus musculus)             0.9
2  CO[C@H]1C2OP(O)(=S)OC[C@H]2O[C@H]1n1c(Sc2ccc(Cl)cc2)nc2c(N)ncnc21 (stereo partly shown) [S-211, Sp-8-pCPT-2′-O-Me-cAMPS]  Epac2^Δ280 (Mus musculus)             0.4

Alright, here's another compound for you.
// field: Rel. kmax; key: CCN(CC)c1nc2c(N)ncnc2n1[C@@H]1O[C@@H]2CO[P@](O)(=S)O[C@H]2[C@H]1O [S-090, Sp-8-DEA-cAMPS] ; value = 4.1

###

Target: Epac2^Δ280 (Mus musculus, UniProt Q9EQZ6)
Construct: made in house
Assay: Epac activation assay (Rap1B•mGDP fluorescence nucleotide exchange), Epac2^Δ280
Assay type: biochemical
Details: Epac2^Δ280; maximal activity relative to cAMP
Label Fulfilled when Rel. kmax is at or above 2; otherwise label Not fulfilled.

Below, 9 molecules whose answers are already recorded.
                                   molecule  assigned_class
0  CCCCO[C@@H]1[C@@H]2OP(=O)(O)OC[C@H]2O[C@H]1n1cnc2c(N)ncnc21   Not fulfilled
1  Nc1ncnc2c1nc(Cl)n2[C@@H]1O[C@@H]2COP(O)(=S)O[C@@H]2C1O (some centres unmarked)       Fulfilled
2  Nc1ncnc2c1nc(Sc1ccc(O)cc1)n2[C@@H]1O[C@@H]2CO[P@](O)(=S)O[C@H]2[C@H]1F   Not fulfilled
3  CNc1nc2c(N)ncnc2n1[C@@H]1O[C@@H]2CO[P@](O)(=S)O[C@H]2[C@H]1O       Fulfilled
4  Nc1ncnc2c1nc(SCc1ccc(F)cc1)n2[C@@H]1O[C@@H]2CO[P@](O)(=S)O[C@H]2[C@H]1O       Fulfilled
5  NCCCCCCNc1nc2c(N)ncnc2n1[C@@H]1O[C@@H]2COP(=O)(O)O[C@H]2[C@H]1O   Not fulfilled
6  Nc1ncnc2c1nc(SCc1ccc(Cl)cc1)n2[C@@H]1O[C@@H]2CO[P@](O)(=S)O[C@H]2[C@H]1O       Fulfilled
7  CNc1nc2c(N)ncnc2n1[C@H]1C[C@@H]2O[P@@](O)(=S)OC[C@H]2O1   Not fulfilled
8  CCN(C)c1nc2c(N)ncnc2n1[C@@H]1O[C@@H]2CO[P@](O)(=S)O[C@H]2[C@H]1O       Fulfilled

Here is the next item to consider.
Exam item: Does the reported Rel. kmax for Nc1ncnc2c1[nH]c(=O)n2C1OC2COP(=O)(O)OC2C1O (centres unmarked) fall at or above the 2 mark?
Marked response: Not fulfilled

###

Target: Epac2^Δ280 (Mus musculus)
Construct: made in house
Assay: Epac activation assay (Rap1B•mGDP fluorescence nucleotide exchange), Epac2^Δ280
Type: biochemical
Conditions: Epac2^Δ280
METRIC: log10 AC50 (log10 of the value in µM)
Heads up, the numbers here are log10 of AC50 in µM units.

// below: answered compounds
>>> df
                                   compound  observed_value
0  Nc1ncnc2c1nc(SCc1ccc(F)cc1)n2[C@@H]1O[C@@H]2CO[P@](O)(=S)O[C@H]2[C@H]1O           -0.96
1  Nc1ncnc2c1nc(OCc1ccccc1)n2[C@@H]1O[C@@H]2CO[P@](O)(=S)O[C@H]2[C@H]1O            0.11
2  CO[C@@H]1[C@@H]2OP(=O)(O)OC[C@H]2O[C@H]1n1c(O)nc2c(N)ncnc21            0.83
3  CO[C@@H]1[C@@H]2O[P@@](O)(=S)OC[C@H]2O[C@H]1n1c(Sc2ccc(O)cc2)nc2c(N)ncnc21            0.20
4  COc1nc2c(N)ncnc2n1[C@@H]1O[C@@H]2CO[P@](O)(=S)O[C@H]2[C@H]1O           -0.15

// field: log10 AC50; key: CN(C)c1nc2c(N)ncnc2n1[C@@H]1O[C@@H]2CO[P@](O)(=S)O[C@H]2[C@H]1O ; value = 0.32

// field: log10 AC50; key: Nc1ncnc2c1nc(Br)n2[C@@H]1O[C@@H]2COP(=O)(O)O[C@H]2[C@H]1O ; value = -0.40

// field: log10 AC50; key: Nc1ncnc2c1ncn2[C@@H]1O[C@@H]2COP(O)(=S)O[C@H]2[C@H]1O (stereo partly drawn) ; value = 1.00

// field: log10 AC50; key: CNc1nc2c(N)ncnc2n1[C@@H]1O[C@@H]2CO[P@](O)(=S)O[C@H]2[C@H]1F ; value = 0.98
